Organism: Rattus norvegicus
Test: DrugMatrix - Regimen: Daily Repeat
Type: toxicity, organism-based, Sprague-Dawley
Set-up: regimen Daily Repeat, gender Male, age 6-8 weeks
Conditions: in vivo, po, 0 mg/kg, 72 h, tissue Plasma, route oral GAVAGE, dose level Control, time 3 day, vehicle .5 % CMC
Metric: ALKALINE PHOSPHATASE (u/L)
Your answer is read as u/L, so omit the unit and give the number.

Examples with answers:
# Molecule, Value units, ALKALINE PHOSPHATASE
data = [
    ("CC(C)Cc1ccc([C@H](C)C(=O)O)cc1", "u/L", 411.83),
    ("CC(C)NCC(O)COc1ccc(CC(N)=O)cc1 (configuration not stated)", "u/L", 372),
    ("CCN1CCCC1CNC(=O)c1cc(S(N)(=O)=O)ccc1OC (configuration not stated) [SULPIRIDE]", "u/L", 378.5),
    ("Nc1ccc(C(=O)O)c(O)c1", "u/L", 370.17),
]

Query: Consider the molecule CCN1C[C@]2(COC)[C@H](O)C[C@H](OC)[C@@]34[C@@H]5C[C@@]6(O)[C@H](OC(=O)c7ccccc7)[C@@H]5[C@@](OC(C)=O)([C@@H]([C@H](OC)[C@H]23)[C@@H]14)[C@@H](O)[C@@H]6OC and give its measured ALKALINE PHOSPHATASE.
Reply: 388.17

Query: Consider the molecule CCOc1cc(N)c(Cl)cc1C(=O)NCC1CN(Cc2ccc(F)cc2)CCO1 (configuration not stated) [MOSAPRIDE] and give its measured ALKALINE PHOSPHATASE.
Reply: 346.83

Query: Consider the molecule Cl.NC[C@H]1CC[C@H](C(=O)Oc2ccc(CCC(=O)O)cc2)CC1 [CETRAXATE HYDROCHLORIDE] and give its measured ALKALINE PHOSPHATASE.
Reply: 388.83

Query: Consider the molecule NC(=O)NC(=O)Cc1ccccc1 [PHENACEMIDE] and give its measured ALKALINE PHOSPHATASE.
Reply: 436.5

Data origin: ChEMBL document CHEMBL3885881
